- System: Staphylococcus epidermidis
- assay-details: Antibiofilm activity against Staphylococcus epidermidis GTC 18972 assessed as inhibition of biofilm formation at 50 ug/ml
- Assay type: functional
Please mark true (1) if the recorded inhibition at 50 µg/mL is equal to or greater than -10%, and false (0) if it falls below.

> print(dat)
                                   molecule                study.system  answer.label
1  Nc1ncc(C(=O)CCNC(=O)c2cc(Br)c[nH]2)[nH]1  Staphylococcus epidermidis      true (1)
2  O=C(NCCC(O)c1cnc2ncccn12)c1cc(Br)c(Br)[nH]1 (stereo unspecified)  Staphylococcus epidermidis     false (0)
3       O=C(NCC(=O)c1cnc2ncccn12)c1ccc[nH]1  Staphylococcus epidermidis      true (1)
4  O=C(NCCC(O)c1cnc2ncccn12)c1cc(Br)c[nH]1 (stereo unspecified)  Staphylococcus epidermidis     false (0)
5   O=C(CCN1C(=O)c2ccccc2C1=O)c1cnc2ncccn12  Staphylococcus epidermidis     false (0)
6               Cl.Cl.NCCC(=O)c1cnc2ncccn12  Staphylococcus epidermidis      true (1)

###

Catalogue of Activity readings, one per entry.
- System: Staphylococcus aureus
- assay-details: Antibacterial activity against methicillin-resistant Staphylococcus aureus 1094 assessed as planktonic growth at 50 ug/ml
- Type: organism-based
attribute-measured: Activity (%)

> print(dat)
                                    compound  attribute.measured  reported.result
 1  Nc1nc(C(=O)CCNC(=O)c2cc(Br)c(Br)[nH]2)c[nH]1            Activity            21.91
 2  O=C(NCC(O)c1cnc2ncccn12)c1cc(Br)c[nH]1 (configuration not stated)            Activity             5.81
 3      O=C(NCCC(=O)c1cnc2ncccn12)c1ccc[nH]1            Activity            10.52
 4  O=C(NCCC(O)c1cnc2ncccn12)c1cc(Br)c(Br)[nH]1 (configuration not stated)            Activity             -0.8
 5               Cl.Cl.NCCC(=O)c1cnc2ncccn12            Activity             -0.9
 6  O=C(NCC(O)c1cnc2ncccn12)c1ccc[nH]1 (configuration not stated)            Activity            10.52
 7      Nc1ncc(C(=O)CCNC(=O)c2ccc[nH]2)[nH]1            Activity            86.98
 8       O=C(NC/C=C/c1cnc2ncccn12)c1ccc[nH]1            Activity             -0.8
 9                Cl.Cl.NCC(=O)c1cnc2ncccn12            Activity                2
10    O=C(CN1C(=O)c2ccccc2C1=O)c1cnc2ncccn12            Activity            21.51
11       O=C(NCC(=O)c1cnc2ncccn12)c1ccc[nH]1            Activity            20.67
12  O=C(NCC(=O)c1cnc2ncccn12)c1cc(Br)c(Br)[nH]1            Activity            18.43
13  Nc1ncc(C(=O)CCNC(=O)c2cc(Br)c[nH]2)[nH]1            Activity            88.88
14  O=C(NCCC(=O)c1cnc2ncccn12)c1cc(Br)c[nH]1            Activity             5.81
15   O=C(NCC(=O)c1cnc2ncccn12)c1cc(Br)c[nH]1            Activity            16.74
16   O=C(CCN1C(=O)c2ccccc2C1=O)c1cnc2ncccn12            Activity            15.94
17  O=C(NCC(O)c1cnc2ncccn12)c1cc(Br)c(Br)[nH]1 (configuration not stated)            Activity             6.37
18  O=C(NCCC(O)c1cnc2ncccn12)c1cc(Br)c[nH]1 (configuration not stated)            Activity             17.3
19   O=C(NC/C=C/c1cnc2ncccn12)c1cc(Br)c[nH]1            Activity             -8.7
20  O=C(NCCC(O)c1cnc2ncccn12)c1ccc[nH]1 (configuration not stated)            Activity             -7.9
21  O=C(NC/C=C/c1cnc2ncccn12)c1cc(Br)c(Br)[nH]1            Activity             -0.5
22  O=C(NCCC(=O)c1cnc2ncccn12)c1cc(Br)c(Br)[nH]1            Activity             6.37

###

- System: Staphylococcus epidermidis
- assay-details: Antibacterial activity against Staphylococcus epidermidis 1457 assessed as planktonic growth at 50 ug/ml
- Type: organism-based
attribute-measured: Activity (%)

> print(dat)
                                    molecule  reported.result
 1   O=C(CCN1C(=O)c2ccccc2C1=O)c1cnc2ncccn12            15.13
 2  O=C(NCCC(=O)c1cnc2ncccn12)c1cc(Br)c[nH]1            -2.26
 3      Nc1ncc(C(=O)CCNC(=O)c2ccc[nH]2)[nH]1            81.58
 4  O=C(NCCC(O)c1cnc2ncccn12)c1ccc[nH]1 (stereo unspecified)              0.7
 5               Cl.Cl.NCCC(=O)c1cnc2ncccn12              3.5
 6                Cl.Cl.NCC(=O)c1cnc2ncccn12             -0.6
 7       O=C(NCC(=O)c1cnc2ncccn12)c1ccc[nH]1             11.5
 8  Nc1nc(C(=O)CCNC(=O)c2cc(Br)c(Br)[nH]2)c[nH]1           -13.68
 9       O=C(NC/C=C/c1cnc2ncccn12)c1ccc[nH]1             -8.9
10  O=C(NCC(O)c1cnc2ncccn12)c1cc(Br)c[nH]1 (stereo unspecified)            -2.26
11   O=C(NC/C=C/c1cnc2ncccn12)c1cc(Br)c[nH]1              -24

###

- System: Staphylococcus aureus
- assay-details: Antibacterial activity against methicillin-resistant Staphylococcus aureus assessed as planktonic growth at 50 ug/ml
- Type: organism-based
- condition: in vitro
attribute-measured: Activity (%)

> print(dat)
                                    compound  attribute.measured  reported.result
 1  Nc1ncc(C(=O)CCNC(=O)c2cc(Br)c[nH]2)[nH]1            Activity            88.41
 2  O=C(NCC(=O)c1cnc2ncccn12)c1cc(Br)c(Br)[nH]1            Activity             7.17
 3  O=C(NCCC(O)c1cnc2ncccn12)c1cc(Br)c[nH]1 (stereo not given)            Activity             15.4
 4  O=C(NCCC(O)c1cnc2ncccn12)c1ccc[nH]1 (stereo not given)            Activity              6.1
 5   O=C(CCN1C(=O)c2ccccc2C1=O)c1cnc2ncccn12            Activity            10.43
 6  Nc1nc(C(=O)CCNC(=O)c2cc(Br)c(Br)[nH]2)c[nH]1            Activity             1.56
 7       O=C(NCC(=O)c1cnc2ncccn12)c1ccc[nH]1            Activity             3.76
 8  O=C(NCCC(O)c1cnc2ncccn12)c1cc(Br)c(Br)[nH]1 (stereo not given)            Activity             -5.1
 9  O=C(NCC(O)c1cnc2ncccn12)c1cc(Br)c(Br)[nH]1 (stereo not given)            Activity            -1.91
10   O=C(NC/C=C/c1cnc2ncccn12)c1cc(Br)c[nH]1            Activity            -16.4

###

Catalogue of Activity readings, one per entry.
- Tested on: Staphylococcus aureus
- assay-details: Antibacterial activity against Staphylococcus aureus ATCC 35556 assessed as planktonic growth at 50 ug/ml
- Type: organism-based
attribute-measured: Activity (%)

> print(dat)
                                    compound           study.system  attribute.measured  measure.unit  reported.result
 1  O=C(NCCC(O)c1cnc2ncccn12)c1cc(Br)c[nH]1 (stereo not given)  Staphylococcus aureus            Activity             %              4.7
 2  O=C(NCC(O)c1cnc2ncccn12)c1cc(Br)c(Br)[nH]1 (stereo not given)  Staphylococcus aureus            Activity             %            -6.51
 3  Nc1nc(C(=O)CCNC(=O)c2cc(Br)c(Br)[nH]2)c[nH]1  Staphylococcus aureus            Activity             %            -4.22
 4      Nc1ncc(C(=O)CCNC(=O)c2ccc[nH]2)[nH]1  Staphylococcus aureus            Activity             %            79.94
 5       O=C(NCC(=O)c1cnc2ncccn12)c1ccc[nH]1  Staphylococcus aureus            Activity             %            -4.75
 6  O=C(NCCC(O)c1cnc2ncccn12)c1ccc[nH]1 (stereo not given)  Staphylococcus aureus            Activity             %              3.3
 7   O=C(CCN1C(=O)c2ccccc2C1=O)c1cnc2ncccn12  Staphylococcus aureus            Activity             %             2.31
 8  O=C(NCCC(=O)c1cnc2ncccn12)c1cc(Br)c(Br)[nH]1  Staphylococcus aureus            Activity             %            -6.51
 9   O=C(NC/C=C/c1cnc2ncccn12)c1cc(Br)c[nH]1  Staphylococcus aureus            Activity             %              8.6
10  O=C(NCCC(=O)c1cnc2ncccn12)c1cc(Br)c[nH]1  Staphylococcus aureus            Activity             %             4.97
11  O=C(NCC(=O)c1cnc2ncccn12)c1cc(Br)c(Br)[nH]1  Staphylococcus aureus            Activity             %             -4.3
12      O=C(NCCC(=O)c1cnc2ncccn12)c1ccc[nH]1  Staphylococcus aureus            Activity             %             6.67
13  O=C(NCC(O)c1cnc2ncccn12)c1cc(Br)c[nH]1 (stereo not given)  Staphylococcus aureus            Activity             %             4.97
14   O=C(NCC(=O)c1cnc2ncccn12)c1cc(Br)c[nH]1  Staphylococcus aureus            Activity             %            -3.86
15    O=C(CN1C(=O)c2ccccc2C1=O)c1cnc2ncccn12  Staphylococcus aureus            Activity             %            -6.07
